- System: H1299 cells
- assayProcedure: CCK-8 cell viability assay, H1299
- Assay type: cell-based
- testConditions: H1299 (p53 null); 24 hours of treatment, CCK-8; read-out: IC50, cell viability
pIC50: −log10 of the molar value.
assayMetric: pIC50

>>> observed("CC1(C)C2CCC1(C)C(OC(=O)CBr)C2 (racemic) [MCI13E, (+/−)-Isobornyl bromoacetate]")
"~5.40"

----------
The following compounds are shown together with reported pIC50 values.
- Test system: H460 cells
- assayProcedure: Crystal violet cell viability assay, H460
- Assay type: cell-based
- testConditions: 48 hours, crystal violet
pIC50: −log10 of the molar value.
assayMetric: pIC50

>>> observed("CC1(C)C2CCC1(C)C(OC(=O)CBr)C2 (racemic) [MCI13E, (+/−)-Isobornyl bromoacetate]")
"~5.30"
>>> observed("CC1(C)C2CCC1(C)C(OC(=O)CI)C2 (racemic) [MCI13F, (+/−)-Isobornyl iodoacetate]")
"~5.30"

From: patent US9757350B2
